molecular target: Phosphatidylinositol 4,5-bisphosphate 3-kinase catalytic subunit delta isoform (Homo sapiens); assay: Inhibition of PI3Kdelta (unknown origin) using lipid as substrate incubated for 15 mins followed by substrate addition and measured after 60 mins ADPGloTM reagent based assay
Sequence (O00329 whole entry, canonical isoform): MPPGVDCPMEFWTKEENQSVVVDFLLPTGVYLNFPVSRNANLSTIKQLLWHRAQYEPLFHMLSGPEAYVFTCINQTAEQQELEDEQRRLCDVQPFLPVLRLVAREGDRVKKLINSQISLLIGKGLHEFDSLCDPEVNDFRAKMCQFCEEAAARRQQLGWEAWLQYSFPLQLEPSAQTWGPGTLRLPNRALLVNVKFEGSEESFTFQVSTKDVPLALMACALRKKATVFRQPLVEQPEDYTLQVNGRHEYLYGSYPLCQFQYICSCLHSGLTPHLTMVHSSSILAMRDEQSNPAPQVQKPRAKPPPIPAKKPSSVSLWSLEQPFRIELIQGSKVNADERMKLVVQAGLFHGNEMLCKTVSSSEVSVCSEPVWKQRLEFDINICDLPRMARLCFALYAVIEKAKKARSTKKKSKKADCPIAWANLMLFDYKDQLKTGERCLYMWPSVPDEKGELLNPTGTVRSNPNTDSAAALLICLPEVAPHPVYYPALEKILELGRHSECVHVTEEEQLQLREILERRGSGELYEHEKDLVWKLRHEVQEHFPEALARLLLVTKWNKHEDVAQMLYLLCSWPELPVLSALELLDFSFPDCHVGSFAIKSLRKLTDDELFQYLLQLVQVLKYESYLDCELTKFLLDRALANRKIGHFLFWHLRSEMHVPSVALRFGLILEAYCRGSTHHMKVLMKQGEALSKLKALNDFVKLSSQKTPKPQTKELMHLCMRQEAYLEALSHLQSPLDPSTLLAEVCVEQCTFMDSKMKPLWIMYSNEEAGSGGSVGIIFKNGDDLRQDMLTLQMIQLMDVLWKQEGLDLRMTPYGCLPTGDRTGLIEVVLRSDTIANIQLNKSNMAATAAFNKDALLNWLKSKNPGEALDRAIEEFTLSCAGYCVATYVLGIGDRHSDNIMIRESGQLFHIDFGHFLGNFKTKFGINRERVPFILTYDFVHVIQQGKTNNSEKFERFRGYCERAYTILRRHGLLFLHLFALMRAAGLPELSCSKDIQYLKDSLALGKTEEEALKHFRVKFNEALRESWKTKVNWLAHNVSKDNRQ
endpoint_name: pIC50
Note on pIC50: it is the negative log10 of concentration, concentration in mol/L.

Inquiry: I am curious: what pIC50 value has been reported for `COc1ncc(-c2ccc3ncnc(Nc4cnn(CCO)c4)c3c2)cc1NS(=O)(=O)c1ccc(F)cc1F` ?
Reply text: 9.32

###

target: Phosphatidylinositol 4,5-bisphosphate 3-kinase catalytic subunit gamma isoform (Homo sapiens, UniProt P48736); assay: Inhibition of PI3Kgamma (unknown origin) using lipid as substrate incubated for 15 mins followed by substrate addition and measured after 60 mins ADPGloTM reagent based assay
Sequence (P48736 whole entry, canonical isoform): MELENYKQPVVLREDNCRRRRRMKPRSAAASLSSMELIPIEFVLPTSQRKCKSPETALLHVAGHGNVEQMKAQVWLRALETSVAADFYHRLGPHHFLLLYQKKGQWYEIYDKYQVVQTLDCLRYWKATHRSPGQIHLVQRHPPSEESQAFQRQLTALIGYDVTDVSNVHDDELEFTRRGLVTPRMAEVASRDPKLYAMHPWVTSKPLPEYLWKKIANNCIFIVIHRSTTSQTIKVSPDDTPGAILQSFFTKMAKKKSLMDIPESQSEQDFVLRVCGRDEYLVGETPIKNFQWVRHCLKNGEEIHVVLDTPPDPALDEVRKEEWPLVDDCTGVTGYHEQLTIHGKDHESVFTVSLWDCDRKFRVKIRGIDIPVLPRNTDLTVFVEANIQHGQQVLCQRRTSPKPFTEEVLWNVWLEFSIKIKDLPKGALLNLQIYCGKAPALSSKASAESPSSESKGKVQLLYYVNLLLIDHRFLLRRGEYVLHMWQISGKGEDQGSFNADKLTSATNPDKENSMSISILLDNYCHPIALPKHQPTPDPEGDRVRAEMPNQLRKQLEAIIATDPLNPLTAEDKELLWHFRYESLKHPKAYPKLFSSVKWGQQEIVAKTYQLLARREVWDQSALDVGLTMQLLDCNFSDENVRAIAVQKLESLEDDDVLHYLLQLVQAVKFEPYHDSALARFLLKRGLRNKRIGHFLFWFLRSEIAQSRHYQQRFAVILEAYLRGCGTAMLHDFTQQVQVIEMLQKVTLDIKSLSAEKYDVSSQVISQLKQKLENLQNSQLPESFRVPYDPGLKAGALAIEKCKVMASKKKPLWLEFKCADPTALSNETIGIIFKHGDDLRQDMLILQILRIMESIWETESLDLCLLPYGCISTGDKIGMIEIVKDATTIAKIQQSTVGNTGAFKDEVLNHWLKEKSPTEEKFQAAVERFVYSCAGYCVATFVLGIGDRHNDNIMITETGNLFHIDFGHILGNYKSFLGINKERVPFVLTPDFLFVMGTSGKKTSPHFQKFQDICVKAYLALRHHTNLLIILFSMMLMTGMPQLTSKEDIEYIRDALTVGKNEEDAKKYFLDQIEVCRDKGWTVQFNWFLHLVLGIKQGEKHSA
endpoint_name: IC50 (nM)
Give the number; nM is assumed, so skip it.

Inquiry: Item `COc1ncc(-c2ccc3ncnc(Nc4cnn(CCO)c4)c3c2)cc1NS(=O)(=O)c1ccc(F)cc1F` has what recorded IC50?
Reply text: 0.58

###

system: HCT-116; assay: Antiproliferative activity against human HCT-116 cells assessed as reduction in cell viability incubated for 72 hrs by SRB assay; assay type: functional, cell-based; conditions: HCT-116, 72 h
endpoint_name: pIC50
pIC50 here is simply -log10 of the concentration when that concentration is written in mol/L.

Inquiry: Consider the molecule `COc1ncc(-c2ccc3ncnc(Nc4ccc(OCCO)cc4)c3c2)cc1NS(C)(=O)=O` and give its measured pIC50.
Reply text: 5.31

Inquiry: Need pIC50, item `COc1ncc(-c2ccc3ncnc(Nc4ccc(OCCCO)nc4)c3c2)cc1NS(=O)(=O)c1ccc(F)cc1F`
Reply text: 5.43

Inquiry: Given `COc1ncc(-c2ccc3ncnc(Nc4cnn(CCCO)c4)c3c2)cc1NS(=O)(=O)c1ccc(F)cc1F` , state its recorded pIC50.
Reply text: 6.32

Inquiry: What pIC50 value was documented for this molecule, `COc1ncc(-c2ccc3ncnc(Nc4ccc(OCCO)nc4)c3c2)cc1NS(=O)(=O)c1ccc(F)cc1F` ?
Reply text: 5.63

###

biological target: Phosphatidylinositol 4,5-bisphosphate 3-kinase catalytic subunit beta isoform (Homo sapiens); assay: Inhibition of PI3Kbeta (unknown origin) using lipid as substrate incubated for 15 mins followed by substrate addition and measured after 60 mins ADPGloTM reagent based assay
Sequence (P42338 whole entry, canonical isoform): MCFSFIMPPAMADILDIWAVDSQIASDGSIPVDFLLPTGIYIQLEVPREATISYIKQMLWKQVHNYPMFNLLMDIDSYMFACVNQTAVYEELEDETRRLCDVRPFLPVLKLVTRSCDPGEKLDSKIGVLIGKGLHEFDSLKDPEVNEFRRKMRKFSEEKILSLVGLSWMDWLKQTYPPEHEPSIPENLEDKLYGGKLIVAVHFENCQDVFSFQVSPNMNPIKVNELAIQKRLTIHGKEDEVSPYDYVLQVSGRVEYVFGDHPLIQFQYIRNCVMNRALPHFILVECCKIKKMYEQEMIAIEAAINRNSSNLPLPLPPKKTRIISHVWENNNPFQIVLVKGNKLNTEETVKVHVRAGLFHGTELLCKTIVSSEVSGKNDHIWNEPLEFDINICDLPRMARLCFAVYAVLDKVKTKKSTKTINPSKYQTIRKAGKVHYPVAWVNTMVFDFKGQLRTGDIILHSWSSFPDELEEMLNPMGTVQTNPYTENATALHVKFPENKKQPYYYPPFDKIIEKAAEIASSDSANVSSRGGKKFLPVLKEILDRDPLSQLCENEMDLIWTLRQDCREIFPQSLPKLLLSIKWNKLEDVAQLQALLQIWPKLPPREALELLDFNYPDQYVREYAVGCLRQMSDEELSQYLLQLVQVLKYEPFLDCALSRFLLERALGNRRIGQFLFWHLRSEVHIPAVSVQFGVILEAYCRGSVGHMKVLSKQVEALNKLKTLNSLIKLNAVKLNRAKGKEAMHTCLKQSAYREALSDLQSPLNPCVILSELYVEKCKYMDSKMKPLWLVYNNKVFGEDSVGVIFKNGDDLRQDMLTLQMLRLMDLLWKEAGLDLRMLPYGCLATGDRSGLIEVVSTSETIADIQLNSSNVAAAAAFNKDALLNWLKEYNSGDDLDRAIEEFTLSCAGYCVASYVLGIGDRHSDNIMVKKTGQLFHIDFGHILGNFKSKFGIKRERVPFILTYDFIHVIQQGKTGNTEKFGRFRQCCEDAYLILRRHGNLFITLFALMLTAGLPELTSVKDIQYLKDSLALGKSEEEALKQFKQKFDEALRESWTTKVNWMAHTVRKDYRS
endpoint_name: IC50

Inquiry: Given `COc1ncc(-c2ccc3ncnc(Nc4cnn(CCO)c4)c3c2)cc1NS(=O)(=O)c1ccc(F)cc1F` , state its recorded IC50.
Reply text: 2.99 nM

###

system: MCF7; experiment: Antiproliferative activity against human MCF7 cells assessed as reduction in cell viability incubated for 72 hrs by SRB assay; type: functional, cell-based; conditions: MCF7, 72 h
endpoint_name: pIC50
pIC50 here is simply -log10 of the concentration when that concentration is written in mol/L.

Inquiry: Can you look up the measured pIC50 of `COc1ncc(-c2ccc3ncnc(Nc4cnn(CCCO)c4)c3c2)cc1NS(C)(=O)=O` for me?
Reply text: 6.14

Inquiry: Recorded pIC50 of `COc1ncc(-c2ccc3ncnc(Nc4ccc(OCCO)c(F)c4)c3c2)cc1NS(=O)(=O)c1ccc(F)cc1F` , please.
Reply text: 5.32

Inquiry: Any idea what pIC50 was measured for `COC(=O)Cn1cc(Nc2ncnc3ccc(-c4cnc(OC)c(NS(=O)(=O)c5ccc(F)cc5F)c4)cc23)cn1` ?
Reply text: 6.17

Inquiry: For the molecule `COc1ncc(-c2ccc3ncnc(Nc4cnn(CCO)c4)c3c2)cc1NS(=O)(=O)c1ccc(F)cc1F` , what pIC50 is on record?
Reply text: 6.66

Inquiry: Query: pIC50; subject: `COc1ncc(-c2ccc3ncnc(Nc4ccc(OCCO)c(Cl)c4)c3c2)cc1NS(=O)(=O)c1ccc(F)cc1F`
Reply text: 5.43

Inquiry: Look up pIC50 for this molecule: `COc1ncc(-c2ccc3ncnc(Nc4cnn(CCO)c4)c3c2)cc1NS(C)(=O)=O`
Reply text: 6.11

Inquiry: Look up pIC50 for this molecule: `COc1ncc(-c2ccc3ncnc(Nc4ccc(OCCCO)nc4)c3c2)cc1NS(=O)(=O)c1ccc(F)cc1F`
Reply text: 5.21

Inquiry: # get_value(readout='pIC50', item= COc1ncc(-c2ccc3nccc(-c4ccnnc4)c3c2)cc1NS(=O)(=O)c1ccc(F)cc1F [OMIPALISIB] )
Reply text: 7.52

Inquiry: Recorded pIC50 for `COc1ncc(-c2ccc3ncnc(Nc4ccc(OCCO)nc4)c3c2)cc1NS(=O)(=O)c1ccc(F)cc1F` , please?
Reply text: 5.37

Inquiry: Form field: reported pIC50 of `COc1ncc(-c2ccc3ncnc(Nc4ccc(OCCO)cc4)c3c2)cc1NS(=O)(=O)c1ccc(F)cc1F`
Reply text: 5.78

Inquiry: Entry under review: `COc1ncc(-c2ccc3ncnc(Nc4cnn(CC(=O)O)c4)c3c2)cc1NS(=O)(=O)c1ccc(F)cc1F` . Reported pIC50?
Reply text: 6.15

Inquiry: Fill in: pIC50 of `COc1ncc(-c2ccc3ncnc(Nc4cnn(CCCO)c4)c3c2)cc1NS(=O)(=O)c1ccc(F)cc1F` is ___
Reply text: 5.88

Inquiry: Tell me the measured pIC50 of `COc1ncc(-c2ccc3ncnc(Nc4cnn(CCC(=O)O)c4)c3c2)cc1NS(=O)(=O)c1ccc(F)cc1F` , please.
Reply text: 6.25

Inquiry: # input molecule: `COc1ncc(-c2ccc3ncnc(Nc4ccc(OCCO)nc4)c3c2)cc1NS(C)(=O)=O` ; wanted: its pIC50
Reply text: 5.51

Inquiry: Suppose we examine the molecule `COc1ncc(-c2ccc3ncnc(Nc4ccc(OCCO)cc4)c3c2)cc1NS(C)(=O)=O` ; what pIC50 value has been reported?
Reply text: 5.49

Inquiry: Given `COc1cc(Nc2ncnc3ccc(-c4cnc(OC)c(NS(=O)(=O)c5ccc(F)cc5F)c4)cc23)ccc1OCCO` , state its recorded pIC50.
Reply text: 5.65

Inquiry: Which measured pIC50 value corresponds to `COC(=O)CCn1cc(Nc2ncnc3ccc(-c4cnc(OC)c(NS(=O)(=O)c5ccc(F)cc5F)c4)cc23)cn1` ?
Reply text: 6.31

The measurements presented in this section are drawn from ChEMBL document CHEMBL4665651.
